Origin of values: paper PMC9268166

Test: Cyanopropyl (CN) chromatography, logkw from two gradients with DryLab
Type: physicochemical
Settings: Cyanopropyl chromatography, pH 7.4; short and long gradient
Please respond with reported logkw, Table S5 for every item in the list.

Q) Quick check: logkw, Table S5 of O=S(=O)(Nc1cccc2cccnc12)c1ccc(-n2cccc2)cc1 [Compound 2] ?
A) 4.040

Q) Query (molecule): COc1ccc(-c2cnnc(NS(=O)(=O)c3cc(C)c(Cl)cc3SCc3ccc(C(F)(F)F)cc3)n2)cc1 [Compound 25] ; field requested: logkw, Table S5
A) 2.330

Q) What logkw, Table S5 value was documented for this molecule, COc1ccc(-c2cnnc(NS(=O)(=O)c3cc(C)c(Cl)cc3SCc3cccc4ccccc34)n2)cc1 [Compound 23] ?
A) 2.478

Q) Looking for the measured logkw, Table S5 of Cc1cc(S(=O)(=O)NC(=O)C=Cc2ccccc2)c(SCc2cccc3ccccc23)cc1Cl [Compound 27] , can you help?
A) 2.313

Q) Look up logkw, Table S5 for this molecule: COc1cc(-c2cnnc(NS(=O)(=O)c3cc(C(=O)Nc4ccc(C)cc4)c(Cl)cc3SCc3ccccc3)n2)cc(OC)c1OC [Compound 19]
A) 2.216

Q) Request the reported logkw, Table S5 associated with Cc1cc(S(=O)(=O)Nc2nnc(-c3ccccc3)c(=O)[nH]2)c(SCc2cccc3ccccc23)cc1Cl [Compound 10]
A) 2.251

Q) // returns reported logkw, Table S5 for input Cc1cc(C)nc(NS(=O)(=O)c2ccc(-n3cccc3)cc2)n1 [Compound 7]
A) 1.780

Q) Reported logkw, Table S5 for COc1ccc(-c2cnnc(NS(=O)(=O)c3cc(C(=O)Nc4ccc(C)cc4)c(Cl)cc3SCc3ccccc3)n2)cc1 [Compound 18] : what is it?
A) 2.358

###

Experiment: IAM chromatography (IAM-HPLC), IAM.PC.DD2 column
Type: physicochemical
Conditions: logkIAM = 0.045 CHIIAM + 0.42; pH 7.4
Parameter: logkIAM

Q) // logkIAM lookup, key: COc1ccc(-c2cnnc(NS(=O)(=O)c3cc(C(=O)Nc4ccc(C)cc4)c(Cl)cc3SCc3ccccc3)n2)cc1 [Compound 18]
A) 2.11

Q) # query: logkIAM of entry Cc1ccc2cccnc2c1NS(=O)(=O)c1ccc(-n2cccc2)cc1 [Compound 3]
A) 2.31

Q) // returns reported logkIAM for input Cc1cc(S(=O)(=O)Nc2nnc(-c3ccccc3)c(=O)[nH]2)c(SCc2cccc3ccccc23)cc1Cl [Compound 10]
A) 2.18

Q) Using the record for Cc1cc(S(=O)(=O)Nc2nncc(-c3cccc(F)c3)n2)c(SCc2ccccc2)cc1Cl [Compound 13] , report its logkIAM.
A) 2.09

Q) If you can, please state the reported logkIAM value of O=S(=O)(Nc1ccc(Cl)cc1)c1ccc(-n2cccc2)cc1 [Compound 6] .
A) 2.46

Q) Given COc1cc(-c2cnnc(NS(=O)(=O)c3cc(C(=O)Nc4ccc(C)cc4)c(Cl)cc3SCc3ccccc3)n2)cc(OC)c1OC [Compound 19] , state its recorded logkIAM.
A) 1.93

Q) Quick check: logkIAM of COc1ccc(-c2cnnc(NS(=O)(=O)c3cc(C)c(Cl)cc3SCc3cccc4ccccc34)n2)cc1 [Compound 23] ?
A) 2.27

Q) What value of measured logkIAM is listed for O=C(Nc1ccc(Cl)cc1)c1cc(S(=O)(=O)Nc2nncc(-c3ccc(C(F)(F)F)cc3)n2)c(SCc2ccccc2)cc1Cl [Compound 15] ?
A) 2.37

###

Give logkwPh for every item shown.
Assay: Phenyl (Ph) chromatography, logkw from two gradients with DryLab
Format: physicochemical
Details: pH 7.4, 40 °C; retention factor extrapolated to 0% organic modifier
Description: For this reason, the next step of our study concerns the characterization of investigated sulfonamide derivatives using a chromatographic approach. Generally, in RP-HPLC, the interactions between solutes and the stationary phase surface are mainly governed by lipophilicity. Consequently, RP-HPLC is the primary tool for assessing the lipophilicity of xenobiotics. […]
The answer should be written as a number, with no unit following it.

Q) Bench note: what logkwPh did `Cc1cc(S(=O)(=O)Nc2nnc(-c3ccccc3)c(=O)[nH]2)c(SCc2cccc3ccccc23)cc1Cl` show?
A) 4.19

Q) Any idea what logkwPh was measured for `Cc1ccc(NC(=O)c2cc(S(=O)(=O)Nc3nncc(-c4ccc(C(F)(F)F)cc4)n3)c(SCc3ccccc3)cc2Cl)cc1` ?
A) 4.54

Q) Tell me the measured logkwPh of `O=S(=O)(Nc1cccc2cccnc12)c1ccc(-n2cccc2)cc1` , please.
A) 6.22

Q) Data request, read-out logkwPh, for `Cc1cc(S(=O)(=O)Nc2nncc(-c3cccc(F)c3)n2)c(SCc2ccccc2)cc1Cl`
A) 3.53

Q) # lookup: logkwPh of `Cc1cc(C)nc(NS(=O)(=O)c2ccc(-n3cccc3)cc2)n1`
A) 2.81

Q) I am curious: what logkwPh value has been reported for `O=S(=O)(Nc1ccc(Cl)cc1)c1ccc(-n2cccc2)cc1` ?
A) 5.39

Q) Bench note: what logkwPh did `COc1ccc(NC(=O)c2cc(S(=O)(=O)Nc3nncc(-c4ccc(OC)cc4)n3)c(SCc3ccccc3)cc2Cl)cc1` show?
A) 3.79

Q) Report logkwPh for `Cc1ccc2cccnc2c1NS(=O)(=O)c1ccc(-n2cccc2)cc1` please.
A) 5.56

Q) Which logkwPh value is on record for `Cc1cc(S(=O)(=O)Nc2nncc(-c3cccc(F)c3)n2)c(SCc2cccc3ccccc23)cc1Cl` ?
A) 4.25

Q) Entry `Cc1cc(S(=O)(=O)Nc2nnc(-c3ccccc3)c(=O)[nH]2)c(SCc2ccc(C(F)(F)F)cc2)cc1Cl` : reported logkwPh = ?
A) 4.49

Q) Could you tell me which logkwPh is on file for `COc1ccc(-c2cnnc(NS(=O)(=O)c3cc(C(=O)Nc4ccccc4)c(Cl)cc3SCc3ccccc3)n2)cc1` ?
A) 4.31

Q) Quick one: logkwPh for `COc1ccc(-c2cnnc(NS(=O)(=O)c3cc(C)c(Cl)cc3SCc3cccc4ccccc34)n2)cc1` ?
A) 4.40

Q) Given the entry `O=S(=O)(Nc1cccc2nsnc12)c1ccc(-n2cccc2)cc1` , report its measured logkwPh.
A) 4.08

Q) So what does the record say about logkwPh for `COc1ccc(-c2cnnc(NS(=O)(=O)c3cc(C(=O)Nc4ccc(C)cc4)c(Cl)cc3SCc3ccccc3)n2)cc1` ?
A) 4.23

Q) Which logkwPh value is on record for `Cc1ccc2cccc(NS(=O)(=O)c3ccc(-n4cccc4)cc3)c2n1` ?
A) 7.39

Q) Please look up its logkwPh: `Cc1cc(S(=O)(=O)Nc2nncc(-c3ccc(C(F)(F)F)cc3)n2)c(SCc2ccc(C(F)(F)F)cc2)cc1Cl`
A) 4.48

###

Experiment: C18 chromatography (RP-HPLC), chromatographic hydrophobicity index
Assay type: physicochemical
Conditions: Waters Symmetry C18 column; CHI log D = 0.0525 CHIC18 − 1.467; pH 7.4
Parameter: chromatographic logD
When you answer, write just the number.

Q) Given the entry `Cc1cc(C)nc(NS(=O)(=O)c2ccc(-n3cccc3)cc2)n1` , report its measured chromatographic logD.
A) 1.88

Q) Form field: reported chromatographic logD of `Cc1cc(S(=O)(=O)Nc2nncc(-c3cccc(F)c3)n2)c(SCc2cccc3ccccc23)cc1Cl`
A) 2.97

Q) Which chromatographic logD reading was recorded for the molecule `COc1ccc(-c2cnnc(NS(=O)(=O)c3cc(C)c(Cl)cc3SCc3cccc4ccccc34)n2)cc1` ?
A) 3.05

Q) # query: chromatographic logD of entry `COc1ccc(NC(=O)c2cc(S(=O)(=O)Nc3nncc(-c4ccc(OC)cc4)n3)c(SCc3ccccc3)cc2Cl)cc1`
A) 2.59

Q) What value of chromatographic logD has been recorded for this entry: `COc1ccc(-c2cnnc(NS(=O)(=O)c3cc(C(=O)Nc4ccccc4)c(Cl)cc3SCc3ccccc3)n2)cc1`
A) 2.68

Q) Entry under review: `Cc1cc(S(=O)(=O)Nc2nnc(Cc3ccccc3)c(=O)[nH]2)c(SCc2cc3c(cc2Cl)OCO3)cc1Cl` . Reported chromatographic logD?
A) 2.75

Q) Query: chromatographic logD; subject: `COc1ccc(-c2cnnc(NS(=O)(=O)c3cc(C)c(Cl)cc3SCc3ccc(C(F)(F)F)cc3)n2)cc1`
A) 2.96

Q) Please look up its chromatographic logD: `Cc1ccc2cccc(NS(=O)(=O)c3ccc(-n4cccc4)cc3)c2n1`
A) 4.04

###

Experiment: Phenyl (Ph) chromatography, logkw from two gradients with DryLab
Type: physicochemical
Details: Phenyl chromatography, pH 7.4; short and long gradient
Parameter: logkw, Table S6
Write the value as a bare number.

Q) Requested read-out: logkw, Table S6. Entry: `COc1ccc(-c2cnnc(NS(=O)(=O)c3cc(C(=O)Nc4ccc(C)cc4)c(Cl)cc3SCc3ccccc3)n2)cc1`
A) 4.228

Q) // logkw, Table S6 lookup, key: `O=S(=O)(Nc1ccc(Cl)cc1)c1ccc(-n2cccc2)cc1`
A) 5.391

Q) Look at this compound and give its reported logkw, Table S6. `Cc1cc(S(=O)(=O)Nc2nncc(-c3cccc(F)c3)n2)c(SCc2ccc(C(F)(F)F)cc2)cc1Cl`
A) 4.088

Q) Recorded logkw, Table S6 of `COc1ccc(-c2cnnc(NS(=O)(=O)c3cc(C(=O)Nc4ccccc4)c(Cl)cc3SCc3ccccc3)n2)cc1` , please.
A) 4.310

Q) Given `Cc1cc(S(=O)(=O)Nc2nnc(Cc3ccccc3)c(=O)[nH]2)c(SCc2cc3c(cc2Cl)OCO3)cc1Cl` , state its recorded logkw, Table S6.
A) 3.824

Q) Need logkw, Table S6, item `CC(=O)NS(=O)(=O)c1cc(C)c(Cl)cc1SCc1cccc2ccccc12`
A) 2.870

Q) I would be grateful if you could share the reported logkw, Table S6 for `COc1cc(-c2cnnc(NS(=O)(=O)c3cc(C(=O)Nc4ccc(C)cc4)c(Cl)cc3SCc3ccccc3)n2)cc(OC)c1OC` .
A) 3.967
